meta.source: the supplement of paper PMC8728848

// reported glycan array binding signal (z-score) per item
Molecular target: Neu5Ac(a2-6)Gal(b1-4)GlcNAc(b1-3)Gal(b1-4)GlcNAc(b1-3)Gal(b1-4)GlcNAc(b1-2)Man(a1-3)[Neu5Ac(a2-6)Gal(b1-4)GlcNAc(b1-3)Gal(b1-4)GlcNAc(b1-3)Gal(b1-4)GlcNAc(b1-2)Man(a1-6)]GalNAc
Test: glycan array binding signal (z-score within array); higher = stronger binding
Details: glycan notation: IUPAC condensed, linker removed
Only a selection was taken, and the strongest signals are over-represented in it overall.

Binder	glycan array binding signal (z-score)
CBM13 2a (Mycobacterium tuberculosum), P64849 (protein) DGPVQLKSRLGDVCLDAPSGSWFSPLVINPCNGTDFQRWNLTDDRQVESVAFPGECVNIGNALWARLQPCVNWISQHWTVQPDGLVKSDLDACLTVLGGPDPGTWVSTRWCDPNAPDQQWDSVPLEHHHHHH	4.67
BabA (Helicobacter pylori), O52269_HELPY (protein) AEDDGFYMSAGYQIGEAAQMVKNTKGIQELSDNYENLSNLLTRYSTLNTLIKLSADPSAVNAARENLGASAKNLIGDTKNSPAYQAVLLAINAAVGFWNVVGYVTQCGGNANGQKSTSSTTIFNNEPGYRSTSITCSLNGHMPGYYGPMSIENFKKLNEAYQILQTALKNGLPALKENNGTVNVTYSYTCSGEGNDNCSLQTTGVTNQNNGTKTETQTIDGKSVTTTISSKVVDSQ	5.39
HA-00510 (Pseudomonas aeruginosa), Q02V39_PSEAB (protein) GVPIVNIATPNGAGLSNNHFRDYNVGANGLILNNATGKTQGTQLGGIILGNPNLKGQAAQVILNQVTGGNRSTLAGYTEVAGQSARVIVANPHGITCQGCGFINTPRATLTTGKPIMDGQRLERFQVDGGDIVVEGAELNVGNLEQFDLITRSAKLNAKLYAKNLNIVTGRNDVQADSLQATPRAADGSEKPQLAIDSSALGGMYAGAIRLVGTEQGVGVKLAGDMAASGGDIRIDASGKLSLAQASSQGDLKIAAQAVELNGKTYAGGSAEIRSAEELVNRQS	3.69
Pbx2CASH domain (Cryptococcus neoformans) (protein) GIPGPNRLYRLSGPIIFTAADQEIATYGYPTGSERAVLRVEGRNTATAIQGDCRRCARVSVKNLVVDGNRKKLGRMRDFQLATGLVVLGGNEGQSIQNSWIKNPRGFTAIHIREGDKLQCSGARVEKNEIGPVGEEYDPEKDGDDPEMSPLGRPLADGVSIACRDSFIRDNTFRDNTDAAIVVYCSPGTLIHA	4.62
AFL5 (Aspergillus fumigatus), Q4WB00 (protein) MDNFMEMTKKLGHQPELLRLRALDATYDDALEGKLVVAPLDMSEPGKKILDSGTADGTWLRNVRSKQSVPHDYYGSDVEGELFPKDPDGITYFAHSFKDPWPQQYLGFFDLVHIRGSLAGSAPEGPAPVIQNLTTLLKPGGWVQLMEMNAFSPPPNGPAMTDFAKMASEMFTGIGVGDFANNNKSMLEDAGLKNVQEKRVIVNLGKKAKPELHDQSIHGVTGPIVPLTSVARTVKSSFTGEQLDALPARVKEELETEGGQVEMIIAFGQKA	2.17
